Target: T1, PUF4 RNA-binding domain (Saccharomyces cerevisiae, UniProt P25339 537-888)
T1 sequence: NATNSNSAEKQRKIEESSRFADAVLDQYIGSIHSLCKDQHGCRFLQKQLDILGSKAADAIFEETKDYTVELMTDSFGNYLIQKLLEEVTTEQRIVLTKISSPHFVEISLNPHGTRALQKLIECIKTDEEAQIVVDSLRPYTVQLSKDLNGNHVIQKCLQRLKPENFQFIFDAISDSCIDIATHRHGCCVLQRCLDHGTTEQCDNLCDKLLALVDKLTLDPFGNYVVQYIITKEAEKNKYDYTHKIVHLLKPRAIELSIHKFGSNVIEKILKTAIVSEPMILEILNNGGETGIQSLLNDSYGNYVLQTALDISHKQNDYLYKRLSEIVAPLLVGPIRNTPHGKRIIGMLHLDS
Assay: Mg; RNA-MaP; 20 mM Na-HEPES pH 7.4, 30 mM KOAc, 0.75 mM MgCl2, 0.1% Tween-20, 5% glycerol, 0.1 mg/mL BSA, 2 mM DTT; 25 C; 0.0125-409.6 nM protein
Details: tags: N-His6-TEV cleaved; C-SNAP kept, Cy3B-labelled; label: tethered on chip by stalled RNA polymerase
Output Met for records whose Kd is lower than 9 nM, Not met for records at or above 9 nM.

binder="UCUCUUUGUACGGUAAUCUCUU (ssRNA) [Ic_S1_P5E.1_K5.1_C5.1_H5.1_A5.1_[T5C]_[T6G]_[A7G]_F5.1_[T9A]_T5.1]" class_assignment="Not met"
binder="Id_iii_S2_P4E.6_K4.2_C4.3_H4.2_A4.1_F4.1_T4.2_[G10C] (ssRNA) RNA: UUUGAUUAAUAUGAUAUCGUUCUUUCUUCUUAUAUAUUACUUUCUUUCUCGAUAUCAUAUUAAUCUUU" class_assignment=Met
binder="UCUCUUAAAUAUAUAUAUAUCUCUU (ssRNA) [Id_i_S1_P3E.6_K3.2_C3.3_[T-3A]_[C-2A]_[T-1A]_H3.2_A3.1_F3.1_T3.2]" class_assignment="Not met"
binder="UCUCUUCCACACUAUACAUCUCUU (ssRNA) [Id_ii_S1_P3E.4_K3.3_C3.2_[T-1C]_H3.3_A3.1_F3.1_T3.2_[T9C]]" class_assignment="Not met"
binder="UCUCUUUCUGUAUUAUUAUUUCUCUU (ssRNA) [Id_ii_S1_P5E.2_K5.1_C5.2_[C-2T]_[T-1C]_H5.1_A5.1_F5.1_T5.2_[A12T]]" class_assignment=Met
binder="Id_ii_S4_P3E.2_K3.1_C3.2_[C-2T]_[T-1A]_H3.1_A3.1_F3.1_T3.2_[A10T] (ssRNA) RNA: UUUGACAACUGAUCGUUCUUUCUUAUGUAUAUAUUUUCUUUCUCGAUCAGUUGUCUUU" class_assignment=Met
binder="UCUCUUGCUAUAUAUUAACUCUCUU (ssRNA) [Id_ii_S1_P4E.3_K4.2_C4.2_[C-2G]_[T-1C]_H4.2_A4.1_F4.1_T4.2_[G10A]_[T11C]]" class_assignment="Not met"
